Target: human AR (Homo sapiens, UniProt P10275)
Construct: expressed in transfected cells; host or cells: CV-1 cells (African green monkey kidney fibroblasts), transient calcium phosphate transfection
Experiment: cell-based
Type: cell-based
Details: percent maximal response relative to reference agonist DHT; na = not active
READOUT KIND: AR Agonist CV-1 Cells Efficacy (%)

Please report the measured AR Agonist CV-1 Cells Efficacy (%) for CC1=CC(C)(C)Nc2cc3[nH]c(=O)c(F)c(C(F)(F)F)c3cc21 [Compound 111]
20%

====

Molecular target: human AR (Homo sapiens, UniProt P10275)
Construct: expressed in transfected cells; host or cells: CV-1 cells (African green monkey kidney fibroblasts), transient calcium phosphate transfection
Sequence (P10275 1-920): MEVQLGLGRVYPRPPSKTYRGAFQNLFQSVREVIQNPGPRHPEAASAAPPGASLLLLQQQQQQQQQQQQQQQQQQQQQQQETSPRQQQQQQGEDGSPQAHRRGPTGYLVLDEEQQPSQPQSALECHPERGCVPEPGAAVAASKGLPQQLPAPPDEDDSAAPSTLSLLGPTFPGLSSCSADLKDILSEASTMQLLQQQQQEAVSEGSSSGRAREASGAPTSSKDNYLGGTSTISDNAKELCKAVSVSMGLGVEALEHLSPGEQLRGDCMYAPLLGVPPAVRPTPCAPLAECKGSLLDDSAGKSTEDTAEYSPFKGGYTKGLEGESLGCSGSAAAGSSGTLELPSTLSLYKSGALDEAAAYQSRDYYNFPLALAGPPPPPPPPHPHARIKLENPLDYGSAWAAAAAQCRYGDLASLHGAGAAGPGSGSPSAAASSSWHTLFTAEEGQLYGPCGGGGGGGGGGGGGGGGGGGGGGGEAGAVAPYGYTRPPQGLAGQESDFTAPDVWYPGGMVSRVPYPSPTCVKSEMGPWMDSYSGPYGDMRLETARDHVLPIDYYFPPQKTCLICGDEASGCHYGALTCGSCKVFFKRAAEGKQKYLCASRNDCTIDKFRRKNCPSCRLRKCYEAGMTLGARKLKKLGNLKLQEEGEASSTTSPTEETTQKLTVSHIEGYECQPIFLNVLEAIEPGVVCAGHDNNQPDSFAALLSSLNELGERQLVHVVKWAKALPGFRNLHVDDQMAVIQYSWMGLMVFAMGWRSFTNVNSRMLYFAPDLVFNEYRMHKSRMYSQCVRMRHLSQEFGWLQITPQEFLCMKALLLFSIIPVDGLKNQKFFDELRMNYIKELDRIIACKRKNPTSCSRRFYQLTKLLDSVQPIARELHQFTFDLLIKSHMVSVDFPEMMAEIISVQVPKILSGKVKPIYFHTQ
Assay: cell-based
Format: cell-based
Details: percent maximal response relative to reference agonist DHT; na = not active
Overview of recorded AR Agonist CV-1 Cells Efficacy (%) for various compounds

INSERT INTO assay_data (compound, target_system, readout_kind, result) VALUES
  ('CC1CC(C)(C)n2oc(=O)c3c4[nH]c(=O)cc(C(F)(F)F)c4cc1c32 (centres unmarked)', 'human AR (Homo sapiens, UniProt P10275)', 'AR Agonist CV-1 Cells Efficacy (%)', '26%');

For the compound CC1(C)CCc2cc3c(C(F)(F)F)c(F)c(=O)[nH]c3cc2N1 , give its reported AR Agonist CV-1 Cells Efficacy (%).
48%

Hello, the source for this data is patent EP0918774B9, in case you need it.
